Test system: Tylonycteris bat coronavirus HKU4
experimental parameters: at 100 µM
outcome measure: inhibition (%)
Answers are plain numbers, in %.

The following molecules have reported results that may help.
{"columns": ["molecule", "inhibition [%]"],
 "data": [
  ["CC(C)(C)NC(=O)C(c1ccsc1)N(C(=O)Cc1c[nH]c2ccccc12)c1ccc(C(C)(C)C)cc1 (stereo not given)", 31],
  ["CC(C)(C)NC(=O)C(c1ccccn1)N(C(=O)c1cccnc1)c1ccc(C(C)(C)C)cc1 (stereo not given)", 12]
]}

Hi there! I need inhibition for each item below, if you can.
1. O=C(Nc1ccc(N(Cc2ccsc2)C(=O)Cn2nnc3ccccc32)cc1)C1CCC1
2. CC(C)(C)NC(=O)C(c1ccsc1)N(C(=O)Cc1cccc2ccccc12)C1CC1 (stereo not given)
3. CC(C)(C)NC(=O)C(c1cccnc1)N(C(=O)CC(F)(F)F)c1ccc(C(C)(C)C)cc1 (stereo not given)

RESULT:
1: 94; 2: 22; 3: 13
